Hey, just so you know, these numbers are from ChEMBL document CHEMBL4689842.

system: Fibroblast; experiment: Multiplex assay against human fibroblast; assay type: toxicity, cell-based; conditions: 24 h, 10 µM, compound concentration 10 uM, replicate 1
// boundary case: Population Pyknosed Nuclei (%) equal to 20% maps to not fulfilled; strictly smaller maps to fulfilled

Before answering, review these 5 worked examples.
CCOc1cc(N2CCC(O)CC2)ccc1Nc1ncc2c(n1)N(C1CCCC1)CCC(=O)N2C | fulfilled
CC(=O)c1cc(-c2cc(C(=O)NC3CC3)ccc2C)c2ncccn12 | not fulfilled
Nc1nc2c(c(N3CCNCC3)n1)CCC1=C2[C@@H]2CCCC[C@@H]2O1 | not fulfilled
Cl.Cl.Nc1ncnc2c1c(-c1cccc(OCc3ccccc3)c1)cn2[C@H]1C[C@@H](CN2CCC2)C1 | not fulfilled
COc1ccc(NS(=O)(=O)c2sc3ccc(Cl)cc3c2C)cc1N1CCNCC1.Cl | not fulfilled

Input line: hey, is Population Pyknosed Nuclei (%) for Cc1nc(Cc2cccc(C(F)(F)F)c2)sc1-c1ccc(C(N)=O)nc1 [TP-024n] lower than 20% or not?
Output line: not fulfilled

Input line: Would you kindly repeat that for CNC(=O)c1cc(Oc2ccc(NC(=O)Nc3cc(C(C)(C)C)nn3-c3ccc4ncccc4c3)c(F)c2)ccn1 [REBASTINIB] ?
Output line: fulfilled

---

test system: HEK-293T; assay: Multiplex assay against HEK293T; type: toxicity, cell-based; details: human, 48 h, 10 µM, compound concentration 10 uM, replicate 2
measured.endpoint: Population Membrane Permeable-Phenotype (%)

CCCn1c(=O)c2[nH]c(C34CC5CC(CC3C5)C4)nc2n(CCC)c1=O | 16%
CC(C)Oc1ccc(C(=O)N[C@H](CNC(=O)CN(C)C)Cc2ccc(-c3cn4cccc([C@H](C)O)c4n3)cc2)cc1Cl [GSK-923295A] | 9%
CCC(=O)O[C@]1(C(=O)SCF)[C@H](C)C[C@H]2[C@@H]3C[C@H](F)C4=CC(=O)C=C[C@]4(C)[C@@]3(F)[C@@H](O)C[C@@]21C [FLUTICASONE PROPIONATE] | 9%

Input line: Report Population Membrane Permeable-Phenotype (%) for CC(C)N1CCC(C)(C)c2cc(C#Cc3ccc(C(=O)O)cc3)ccc21 tested on HEK-293T.
Output line: 4%

---

test system: U2OS; test: Multiplex assay against U2OS; type: toxicity, cell-based; settings: human, 48 h, 1 µM, compound concentration 1 uM, replicate 2
# Population Mitotic Cells (%) >= 80% gives met, anything below gives not met

Example entries begin here.
COc1ccc(NS(=O)(=O)c2sc3ccc(Cl)cc3c2C)cc1N1CCNCC1.Cl | not met
Nc1nc2c(c(N3CCNCC3)n1)CCC1=C2[C@@H]2CCCC[C@@H]2O1 | not met
CC(=O)c1cc(-c2cc(C(=O)NC3CC3)ccc2C)c2ncccn12 | met
CC(C)N1CCC(C)(C)c2cc(C#Cc3ccc(C(=O)O)cc3)ccc21 | not met
Cc1nc(Cc2cccc(C(F)(F)F)c2)sc1-c1ccc(C(N)=O)nc1 [TP-024n] | not met

Input line: Decide: Population Mitotic Cells (%) of Cc1cc2c(cc1N1C(=O)c3cccc4c(CCCO)ccc(c34)C1=O)n(C)c(=O)n2C >= 80%?
Output line: not met

Input line: Quick one: CNc1oc(-c2cccc3ccccc23)nc1C#N
Output line: met

Input line: Thanks! And CCc1cc2c(cc1CC)CC(NC[C@H](O)c1ccc(O)c3[nH]c(=O)ccc13)C2 ?
Output line: met
